Please consider the recorded IC50 for Botulinum neurotoxin type A (Clostridium botulinum) in what follows.
Numbers only, in µM.

Hi, could you look up IC50 for each item in my list?
1. COc1cccc(C(Nc2cc(C)ccn2)c2ccc3ccc(C)nc3c2O)c1 (stereo unspecified)
2. COc1ccc(C(Nc2ccccn2)c2ccc3ccc(C)nc3c2O)cc1OC (stereo unspecified)
3. Cc1ccnc(NC(c2ccccn2)c2ccc3ccc(C)nc3c2O)c1 (stereo unspecified)
4. COc1cccc(C(Nc2cc(C)ccn2)c2ccc3cccnc3c2O)c1 (stereo unspecified)
5. Cc1ccnc(NC(c2ccc([N+](=O)[O-])cc2)c2ccc3cccnc3c2O)c1 (stereo unspecified)
6. Cc1ccnc(NC(c2ccc(Cl)c(Cl)c2)c2ccc3cccnc3c2O)c1 (stereo unspecified)

Data returned:
1: 2; 2: 3; 3: 2.1; 4: 3.3; 5: 4.3; 6: 1.5

Hi, could you look up IC50 for each item in my list?
1. Cc1ccnc(NC(c2ccc(N(C)C)cc2)c2ccc3ccc(C)nc3c2O)c1 (stereo unspecified)
2. Oc1c(I)cc(Cl)c2cccnc12

Data returned:
[2.5, 20.3]

###

system: Liver microsome; experiment: Drug metabolism in human liver microsomes assessed as metabolic rate at 1 uM by reversed phase LC/MS analysis; format: ADME
MEASUREMENT_LABEL: Drug metabolism (µM/min/mg)
Answers are plain numbers, in µM/min/mg.

[[record]]
compound = "Cc1ccnc(NC(c2ccc([N+](=O)[O-])cc2)c2ccc3cccnc3c2O)c1 (stereo not drawn)"
measurement_label = "Drug metabolism"
numeric_result = 0.215

[[record]]
compound = "Oc1c(Cl)cc(Cl)c2cccnc12 [CHLOROXINE]"
measurement_label = "Drug metabolism"
numeric_result = 0.112


For the next question, use this compound.
Data request: Which value of Drug metabolism has been reported for Oc1c(I)cc(Cl)c2cccnc12 [CLIOQUINOL] in the records?
Data returned: 0.086

###

Record form. Attribute: solubility thermodynamic at 24 h. Fill in for each entry.
assay: Aqueous solubility of the compound at pH 1 after 24 hrs by shake flask method; type: physicochemical
One number for each entry, in µM.

Consider the reported solubility thermodynamic at 24 h for these molecules:
[[record]]
molecule = "Cc1ccc2c(Cl)cc(Cl)c(O)c2n1"
units_text = "µM"
numeric_result = 1100

[[record]]
molecule = "Oc1c(C(Nc2ccccn2)c2ccccc2)ccc2cccnc12 (centres undefined)"
units_text = "µM"
numeric_result = 1170

[[record]]
molecule = "COc1ccc(C(Nc2ccccn2)c2ccc3ccc(C)nc3c2O)cc1 (centres undefined)"
units_text = "µM"
numeric_result = 76.7


Hi, could you look up solubility thermodynamic at 24 h for each item in my list?
1. Oc1c(Cl)cc(Cl)c2cccnc12
2. Cc1ccnc(NC(c2ccc([N+](=O)[O-])cc2)c2ccc3ccc(C)nc3c2O)c1 (centres undefined)
3. COc1ccc(C(Nc2ccccn2)c2ccc3cccnc3c2O)cc1 (centres undefined)
4. Cc1ccnc(NC(c2ccc([N+](=O)[O-])cc2)c2ccc3cccnc3c2O)c1 (centres undefined)
5. Oc1c(CNc2ccccn2)ccc2cccnc12
6. Oc1c(I)cc(Cl)c2cccnc12

Data returned:
1. 326
2. 997
3. 102
4. 1050
5. 1140
6. 38.1

###

tested on: Liver microsome; test: Drug metabolism in Sprague-Dawley rat liver microsomes assessed as metabolic rate at 1 uM by reversed phase LC/MS analysis; format: ADME
MEASUREMENT_LABEL: Drug metabolism (µM/min/mg)
Give bare numbers, in µM/min/mg.

Consider the reported Drug metabolism for these compounds:
[[record]]
compound = "Cc1ccnc(NC(c2ccc([N+](=O)[O-])cc2)c2ccc3cccnc3c2O)c1 (centres undefined)"
tested_target = "Liver microsome"
units_text = "µM/min/mg"
numeric_result = 0.13

[[record]]
compound = "Oc1c(I)cc(Cl)c2cccnc12 [CLIOQUINOL]"
tested_target = "Liver microsome"
units_text = "µM/min/mg"
numeric_result = 0.071

[[record]]
compound = "Oc1c(CNc2ccccn2)ccc2cccnc12"
tested_target = "Liver microsome"
units_text = "µM/min/mg"
numeric_result = 0.149

[[record]]
compound = "COc1ccc(C(Nc2ccccn2)c2ccc3ccc(C)nc3c2O)cc1 (centres undefined)"
tested_target = "Liver microsome"
units_text = "µM/min/mg"
numeric_result = 0.627

[[record]]
compound = "Cc1ccnc(NC(c2ccc([N+](=O)[O-])cc2)c2ccc3ccc(C)nc3c2O)c1 (centres undefined)"
tested_target = "Liver microsome"
units_text = "µM/min/mg"
numeric_result = 0.271

[[record]]
compound = "Cc1ccc2c(Cl)cc(Cl)c(O)c2n1 [CHLORQUINALDOL]"
tested_target = "Liver microsome"
units_text = "µM/min/mg"
numeric_result = 0.142

[[record]]
compound = "COc1ccc(C(Nc2ccccn2)c2ccc3cccnc3c2O)cc1 (centres undefined)"
tested_target = "Liver microsome"
units_text = "µM/min/mg"
numeric_result = 0.487

[[record]]
compound = "Oc1c(Cl)cc(Cl)c2cccnc12 [CHLOROXINE]"
tested_target = "Liver microsome"
units_text = "µM/min/mg"
numeric_result = 0.1


For the next question, use this compound.
Data request: Which value of Drug metabolism has been reported for Oc1c(C(Nc2ccccn2)c2ccccc2)ccc2cccnc12 (centres undefined) in the records?
Data returned: 0.637
